Below: a set of entries, each annotated with reported inhibition.
# method_notes: Inhibition of Plasmodium falciparum falcipain-2 after 12 hrs by fluorescence spectroscopy-based on-bead assay
# Parameters: concentration or dose not given beside the values
# condition_set: concentration not given here
Peptide text beside a SMILES is read from it.
Only the number, expressed in %, is required.

Illustrative cases are given below, each with its answer.
CC(C)[C@H](NC(=O)[C@H](C)NC(=O)[C@@H](NC(=O)[C@H](CC(N)=O)NC(=O)/C=C/C(=O)NCC(=O)NCC(=O)N[C@@H](Cc1ccccc1)C(=O)O)C1CCCCC1)C(N)=O (HELM PEPTIDE1{[O=C(/C=C/C(=O)[*:2])NCC(=O)NCC(=O)N[C@@H](Cc1ccccc1)C(=O)O].N.[O=C([C@@H](N[*:1])C1CCCCC1)[*:2]].A.V.[am]}$$$$V2.0)
73
CC(=O)NC[C@H](NC(=O)/C=C/C(=O)NCC(=O)NCC(=O)N[C@@H](Cc1ccccc1)C(=O)O)C(=O)N[C@@H](CC(C)C)C(=O)N[C@@H](CC(C)C)C(=O)N[C@H](C(N)=O)C(C)C (HELM PEPTIDE1{[O=C(/C=C/C(=O)[*:2])NCC(=O)NCC(=O)N[C@@H](Cc1ccccc1)C(=O)O].[O=C([C@H](CN[*:3])N[*:1])[*:2]].L.L.V.[am]}|PEPTIDE2{[ac]}$PEPTIDE1,PEPTIDE2,2:R3-1:R2$$$V2.0)
54

Shift focus to the following entry.
For reference, reported inhibition for CC(=O)NC[C@H](NC(=O)/C=C/C(=O)NCC(=O)NCC(=O)N[C@@H](Cc1ccccc1)C(=O)O)C(=O)N[C@H](C(=O)N[C@@H](C)C(=O)N[C@H](C(N)=O)C(C)C)c1ccccc1 (HELM PEPTIDE1{[O=C(/C=C/C(=O)[*:2])NCC(=O)NCC(=O)N[C@@H](Cc1ccccc1)C(=O)O].[O=C([C@H](CN[*:3])N[*:1])[*:2]].[Phg].A.V.[am]}|PEPTIDE2{[ac]}$PEPTIDE1,PEPTIDE2,2:R3-1:R2$$$V2.0) stands at 37

###

# study_system: Rhodesain (Trypanosoma brucei rhodesiense, UniProt Q95PM0)
# Sequence (Q95PM0 whole entry): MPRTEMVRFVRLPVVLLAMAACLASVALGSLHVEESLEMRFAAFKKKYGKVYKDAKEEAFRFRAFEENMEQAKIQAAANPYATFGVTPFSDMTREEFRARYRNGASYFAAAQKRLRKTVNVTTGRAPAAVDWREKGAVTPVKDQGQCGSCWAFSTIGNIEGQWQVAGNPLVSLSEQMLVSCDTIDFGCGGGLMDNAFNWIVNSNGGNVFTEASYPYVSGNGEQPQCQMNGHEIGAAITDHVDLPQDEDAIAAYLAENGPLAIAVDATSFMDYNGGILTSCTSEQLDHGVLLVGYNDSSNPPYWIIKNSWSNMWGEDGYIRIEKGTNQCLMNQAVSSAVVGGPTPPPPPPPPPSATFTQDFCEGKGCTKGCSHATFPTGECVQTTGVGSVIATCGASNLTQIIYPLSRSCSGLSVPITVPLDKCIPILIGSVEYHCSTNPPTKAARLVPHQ
# method_notes: Inhibition of Trypanosoma brucei rhodesiense recombinant rhodesain
Peptide text beside a SMILES is read from it.
property_name: pKi
A value of pKi is the negative decimal logarithm of a concentration given in moles per litre.

CC(C)C[C@H](NC(=O)[C@H](C)NC(=O)/C=C/C(=O)NCC(=O)NCC(=O)N[C@@H](Cc1ccccc1)C(=O)O)C(=O)N[C@@H](CC(C)C)C(=O)N[C@H](C(N)=O)C(C)C (HELM PEPTIDE1{[O=C(/C=C/C(=O)[*:2])NCC(=O)NCC(=O)N[C@@H](Cc1ccccc1)C(=O)O].A.L.L.V.[am]}$$$$V2.0)
6.00

Shift focus to the following entry.
For reference, reported pKi for CC(C)[C@H](NC(=O)[C@H](C)NC(=O)[C@@H](NC(=O)[C@H](CC(N)=O)NC(=O)/C=C/C(=O)NCC(=O)NCC(=O)N[C@@H](Cc1ccccc1)C(=O)O)C1CCCCC1)C(N)=O (HELM PEPTIDE1{[O=C(/C=C/C(=O)[*:2])NCC(=O)NCC(=O)N[C@@H](Cc1ccccc1)C(=O)O].N.[O=C([C@@H](N[*:1])C1CCCCC1)[*:2]].A.V.[am]}$$$$V2.0) stands at 6.40

###

# method_notes: Inhibition of Plasmodium falciparum falcipain-2 after 12 hrs by fluorescence spectroscopy-based on-bead assay
# Parameters: concentration or dose not given beside the values
# condition_set: concentration not given here
Peptide text beside a SMILES is read from it.
property_name: inhibition

Illustrative cases are given below, each with its answer.
CC(C)C[C@H](NC(=O)[C@H](Cc1ccccc1)NC(=O)[C@H](CCC(N)=O)NC(=O)/C=C/C(=O)N[C@@H](C)C(=O)NCC(=O)N[C@@H](Cc1ccccc1)C(=O)O)C(=O)N[C@H](C(N)=O)C(C)C (HELM PEPTIDE1{[C[C@H](NC(=O)/C=C/C(=O)[*:2])C(=O)NCC(=O)N[C@@H](Cc1ccccc1)C(=O)O].Q.F.L.V.[am]}$$$$V2.0)
49%
CC(C)C[C@H](NC(=O)[C@H](CC(N)=O)NC(=O)/C=C/C(=O)N[C@@H](C)C(=O)NCC(=O)N[C@@H](Cc1ccccc1)C(=O)O)C(=O)N[C@H](C(=O)N[C@H](C(N)=O)C(C)C)C(C)C (HELM PEPTIDE1{[C[C@H](NC(=O)/C=C/C(=O)[*:2])C(=O)NCC(=O)N[C@@H](Cc1ccccc1)C(=O)O].N.L.V.V.[am]}$$$$V2.0)
43%

For reference, reported inhibition for CC[C@H](C)[C@H](NC(=O)[C@H](CNC(C)=O)NC(=O)/C=C/C(=O)NCC(=O)NCC(=O)N[C@@H](Cc1ccccc1)C(=O)O)C(=O)N[C@H](C(=O)N[C@H](C(N)=O)C(C)C)C(C)C (HELM PEPTIDE1{[O=C(/C=C/C(=O)[*:2])NCC(=O)NCC(=O)N[C@@H](Cc1ccccc1)C(=O)O].[O=C([C@H](CN[*:3])N[*:1])[*:2]].I.V.V.[am]}|PEPTIDE2{[ac]}$PEPTIDE1,PEPTIDE2,2:R3-1:R2$$$V2.0) stands at 28%

###

# Test system: Trypanosoma brucei brucei
# method_notes: Antitrypanosomal activity against Trypanosoma brucei brucei
# Format: functional, organism-based
# condition_set: Trypanosoma brucei; read-out: IC50
property_name: IC50 (µM)
Only the number, expressed in µM, is required.

For reference, reported IC50 for NCCCC(N)(C(=O)O)C(F)F (stereo unspecified) stands at 30.7

###

Below: a set of entries, each annotated with reported inhibition.
# study_system: Rhodesain (Trypanosoma brucei rhodesiense) (UniProt Q95PM0)
# Sequence (Q95PM0 1-450): as the sequence (Q95PM0 whole entry) above
# method_notes: Inhibition of Trypanosoma brucei rhodesiense rhodesain after 12 hrs by fluorescence spectroscopy-based on-bead assay
# Parameters: concentration or dose not given beside the values
# condition_set: concentration not given here
Peptide text beside a SMILES is read from it.
I'd appreciate it if you wrote the number followed by its unit.

CC(=O)NC[C@H](NC(=O)/C=C/C(=O)NCC(=O)NCC(=O)N[C@@H](Cc1ccccc1)C(=O)O)C(=O)N[C@@H](CC(C)C)C(=O)N[C@H](C(=O)N[C@H](C(N)=O)C(C)C)C(C)C (HELM PEPTIDE1{[O=C(/C=C/C(=O)[*:2])NCC(=O)NCC(=O)N[C@@H](Cc1ccccc1)C(=O)O].[O=C([C@H](CN[*:3])N[*:1])[*:2]].L.V.V.[am]}|PEPTIDE2{[ac]}$PEPTIDE1,PEPTIDE2,2:R3-1:R2$$$V2.0)
54%
CC[C@H](C)[C@H](NC(=O)[C@H](CC(N)=O)NC(=O)/C=C/C(=O)N[C@@H](C)C(=O)NCC(=O)N[C@@H](Cc1ccccc1)C(=O)O)C(=O)N[C@@H](CC(C)C)C(=O)N[C@H](C(N)=O)C(C)C (HELM PEPTIDE1{[C[C@H](NC(=O)/C=C/C(=O)[*:2])C(=O)NCC(=O)N[C@@H](Cc1ccccc1)C(=O)O].N.I.L.V.[am]}$$$$V2.0)
60%

Field inhibition (system: Rhodesain (Trypanosoma brucei rhodesiense) (UniProt Q95PM0)) for entry CC(C)C[C@H](NC(=O)[C@@H](NC(=O)[C@H](CC(N)=O)NC(=O)/C=C/C(=O)N[C@@H](C)C(=O)NCC(=O)N[C@@H](Cc1ccccc1)C(=O)O)C1CCCCC1)C(=O)N[C@H](C(N)=O)C(C)C (HELM PEPTIDE1{[C[C@H](NC(=O)/C=C/C(=O)[*:2])C(=O)NCC(=O)N[C@@H](Cc1ccccc1)C(=O)O].N.[O=C([C@@H](N[*:1])C1CCCCC1)[*:2]].L.V.[am]}$$$$V2.0) = 66%

###

# method_notes: Inhibition of Plasmodium falciparum falcipain-2 after 12 hrs by fluorescence spectroscopy-based on-bead assay
# Design: concentration or dose not given beside the values
# condition_set: concentration not given here
Square brackets hold non-standard residues; d marks the D form. Peptide text beside a SMILES is read from it. * marks the point of attachment. Fumaroyl(AlaGlyPheOH) = C[C@H](NC(=O)/C=C/C(=O)*)C(=O)NCC(=O)N[C@@H](Cc1ccccc1)C(=O)O; Chg = N[C@H](C(=O)O)C1CCCCC1; Dap = NC[C@H](N)C(=O)O
Below: a set of entries, each annotated with reported inhibition.
I'd appreciate it if you wrote the number followed by its unit.

CC(=O)NC[C@H](NC(=O)/C=C/C(=O)N[C@@H](C)C(=O)NCC(=O)N[C@@H](Cc1ccccc1)C(=O)O)C(=O)N[C@@H](Cc1ccccc1)C(=O)N[C@@H](C)C(=O)N[C@H](C(N)=O)C(C)C (HELM PEPTIDE1{[C[C@H](NC(=O)/C=C/C(=O)[*:2])C(=O)NCC(=O)N[C@@H](Cc1ccccc1)C(=O)O].[O=C([C@H](CN[*:3])N[*:1])[*:2]].F.A.V.[am]}|PEPTIDE2{[ac]}$PEPTIDE1,PEPTIDE2,2:R3-1:R2$$$V2.0)
13%
CC(C)C[C@H](NC(=O)[C@@H](NC(=O)[C@H](CCC(N)=O)NC(=O)/C=C/C(=O)N[C@@H](C)C(=O)NCC(=O)N[C@@H](Cc1ccccc1)C(=O)O)C1CCCCC1)C(=O)N[C@H](C(N)=O)C(C)C (HELM PEPTIDE1{[C[C@H](NC(=O)/C=C/C(=O)[*:2])C(=O)NCC(=O)N[C@@H](Cc1ccccc1)C(=O)O].Q.[O=C([C@@H](N[*:1])C1CCCCC1)[*:2]].L.V.[am]}$$$$V2.0)
47%
CC(C)C[C@H](NC(=O)[C@H](CC(N)=O)NC(=O)/C=C/C(=O)N[C@@H](C)C(=O)NCC(=O)N[C@@H](Cc1ccccc1)C(=O)O)C(=O)N[C@@H](C)C(=O)N[C@H](C(N)=O)C(C)C (HELM PEPTIDE1{[C[C@H](NC(=O)/C=C/C(=O)[*:2])C(=O)NCC(=O)N[C@@H](Cc1ccccc1)C(=O)O].N.L.A.V.[am]}$$$$V2.0)
33%
CC(C)C[C@H](NC(=O)[C@H](C)NC(=O)/C=C/C(=O)N[C@@H](C)C(=O)NCC(=O)N[C@@H](Cc1ccccc1)C(=O)O)C(=O)N[C@H](C(=O)N[C@H](C(N)=O)C(C)C)C(C)C (HELM PEPTIDE1{[C[C@H](NC(=O)/C=C/C(=O)[*:2])C(=O)NCC(=O)N[C@@H](Cc1ccccc1)C(=O)O].A.L.V.V.[am]}$$$$V2.0)
40%
CC(C)[C@H](NC(=O)[C@H](C)NC(=O)[C@H](Cc1ccccc1)NC(=O)[C@H](CCC(N)=O)NC(=O)/C=C/C(=O)NCC(=O)NCC(=O)N[C@@H](Cc1ccccc1)C(=O)O)C(N)=O (HELM PEPTIDE1{[O=C(/C=C/C(=O)[*:2])NCC(=O)NCC(=O)N[C@@H](Cc1ccccc1)C(=O)O].Q.F.A.V.[am]}$$$$V2.0)
54%

For reference, reported inhibition for CC(C)C[C@H](NC(=O)[C@H](Cc1ccccc1)NC(=O)[C@H](C)NC(=O)/C=C/C(=O)NCC(=O)NCC(=O)N[C@@H](Cc1ccccc1)C(=O)O)C(=O)N[C@H](C(N)=O)C(C)C (HELM PEPTIDE1{[O=C(/C=C/C(=O)[*:2])NCC(=O)NCC(=O)N[C@@H](Cc1ccccc1)C(=O)O].A.F.L.V.[am]}$$$$V2.0) stands at 68%

For reference, reported inhibition for CC(C)[C@H](NC(=O)[C@@H](NC(=O)[C@H](Cc1ccccc1)NC(=O)[C@H](C)NC(=O)/C=C/C(=O)NCC(=O)NCC(=O)N[C@@H](Cc1ccccc1)C(=O)O)C(C)C)C(N)=O (HELM PEPTIDE1{[O=C(/C=C/C(=O)[*:2])NCC(=O)NCC(=O)N[C@@H](Cc1ccccc1)C(=O)O].A.F.V.V.[am]}$$$$V2.0) stands at 27%

For reference, reported inhibition for CC(C)C[C@H](NC(=O)[C@H](CC(N)=O)NC(=O)/C=C/C(=O)NCC(=O)NCC(=O)N[C@@H](Cc1ccccc1)C(=O)O)C(=O)N[C@@H](CC(C)C)C(=O)N[C@H](C(N)=O)C(C)C (HELM PEPTIDE1{[O=C(/C=C/C(=O)[*:2])NCC(=O)NCC(=O)N[C@@H](Cc1ccccc1)C(=O)O].N.L.L.V.[am]}$$$$V2.0) stands at 70%

For reference, reported inhibition for CC(C)C[C@H](NC(=O)[C@H](CCC(N)=O)NC(=O)/C=C/C(=O)N[C@@H](C)C(=O)NCC(=O)N[C@@H](Cc1ccccc1)C(=O)O)C(=O)N[C@H](C(=O)N[C@H](C(N)=O)C(C)C)C(C)C (HELM PEPTIDE1{[C[C@H](NC(=O)/C=C/C(=O)[*:2])C(=O)NCC(=O)N[C@@H](Cc1ccccc1)C(=O)O].Q.L.V.V.[am]}$$$$V2.0) stands at 48%

For reference, reported inhibition for CC(=O)NC[C@H](NC(=O)/C=C/C(=O)N[C@@H](C)C(=O)NCC(=O)N[C@@H](Cc1ccccc1)C(=O)O)C(=O)N[C@H](C(=O)N[C@H](C(=O)N[C@H](C(N)=O)C(C)C)C(C)C)c1ccccc1 (HELM PEPTIDE1{[C[C@H](NC(=O)/C=C/C(=O)[*:2])C(=O)NCC(=O)N[C@@H](Cc1ccccc1)C(=O)O].[O=C([C@H](CN[*:3])N[*:1])[*:2]].[Phg].V.V.[am]}|PEPTIDE2{[ac]}$PEPTIDE1,PEPTIDE2,2:R3-1:R2$$$V2.0) stands at 20%

For reference, reported inhibition for CC(=O)NC[C@H](NC(=O)/C=C/C(=O)N[C@@H](C)C(=O)NCC(=O)N[C@@H](Cc1ccccc1)C(=O)O)C(=O)N[C@H](C(=O)N[C@@H](C)C(=O)N[C@H](C(N)=O)C(C)C)C1CCCCC1 ({Fumaroyl(AlaGlyPheOH)}-[Dap](Ac)[Chg]AV-NH2) stands at 35%
